observation type: melting point

Given item "CNC(=O)COC(=O)NCCc1ccc(-c2ccc(F)cc2)cc1F" , the value recorded as its melting point is 164 to 166 °C

Given item "NC(=O)COC(=O)NCCc1ccc(-n2ccc3cccnc32)cc1" , the value recorded as its melting point is 110 to 112 °C

Given item "NC(=O)COC(=O)NCC1(c2ccc(-c3ccc(F)cc3)cc2)CC1" , the value recorded as its melting point is 139 to 141 °C

Given item "CNC(=O)COC(=O)NCCc1ccc(-c2ccc(F)c(Cl)c2)cc1" , the value recorded as its melting point is 178 to 180 °C

Given item "NC(=O)COC(=O)NCc1ccc(-n2cnc(-c3ccccc3)c2)cc1" , the value recorded as its melting point is 200 to 203 °C

Given item "CNC(=O)COC(=O)NCc1ccc(-c2ccc(F)cc2)cc1Cl" , the value recorded as its melting point is 170 to 172 °C

Given item "CNC(=O)COC(=O)NCCc1ccc(-c2ccc(Cl)cc2Cl)cc1" , the value recorded as its melting point is 147 to 149 °C

Given item "CNC(=O)COC(=O)NCCc1ccc(Oc2ccccc2)cc1" , the value recorded as its melting point is 111 to 113 °C

Given item "CNC(=O)COC(=O)NCCc1ccc(-c2cccc(C#N)c2)cc1" , the value recorded as its melting point is 157 to 159 °C

Given item "CNC(=O)COC(=O)NCc1ccc(-c2ccccn2)cc1" , the value recorded as its melting point is 151 to 153 °C

Given item "CNC(=O)COC(=O)NCc1ccc(-c2ccccc2)cc1" , the value recorded as its melting point is 189 to 190 °C

Given item "CNC(=O)COC(=O)NCCc1cccc(Oc2ccccc2)c1" , the value recorded as its melting point is 82 to 84 °C

Given item "CNC(=O)COC(=O)NCCc1ccc(Oc2ccc(Cl)cc2)cc1" , the value recorded as its melting point is 133 to 135 °C

Given item "CNC(=O)COC(=O)NCCc1ccc(-c2ccc(Cl)cc2)cc1" , the value recorded as its melting point is 186 to 188 °C

Given item "CNC(=O)COC(=O)NCCc1ccc(C(F)(F)F)cc1" , the value recorded as its melting point is 140 to 142 °C
